- Test system: COLO 205
- test.method.notes: NCI tumour cell line growth inhibition, 48 h
The source made the active and inactive calls. Rule as the data show it: active = GI50 up to about 1.1 µM and inactive = higher.
assay.readout: GI50

Form field GI50 for item Clc1ccc(/C(=C\c2ccccc2)Cn2ccnc2)cc1 on COLO 205: 15.1 µM (inactive)

Form field GI50 for item COc1ccc2nc(NC(=O)C(=O)CC(=O)c3ccc([N+](=O)[O-])cc3)sc2c1 on COLO 205: > 100 µM (inactive)

Form field GI50 for item CC1CCC2C(C)C3C(CC4C5CC=C6CC(OC7OC(CO)C(O)C(OC8OC(CO)C(O)C(O)C8O)C7OC7OC(C)C(O)C(O)C7O)CCC6(C)C5CCC43C)N2C1 (stereo unspecified) on COLO 205: 16.7 µM (inactive)

Form field GI50 for item C=CCN1C(=O)CNC1=S on COLO 205: > 100 µM (inactive)

Form field GI50 for item Nc1ncnc2c1ccn2C/C=C/CO on COLO 205: > 100 µM (inactive)

Form field GI50 for item O=C(/C=C\c1ccccc1)Oc1ccc(/C=C2\CCCCC2=O)cc1 on COLO 205: 19.9 µM (inactive)

Form field GI50 for item O=S(=O)(c1ccc(-c2nnc(-c3ccc(F)cc3)o2)cc1)c1ccc(-c2nnc(-c3ccc(F)cc3)o2)cc1 on COLO 205: > 100 µM (inactive)

Form field GI50 for item CC(=O)OCC1OC(n2c(-c3ccccc3)c(C)c(C)c(C#N)c2=S)C(OC(C)=O)C(OC(C)=O)C1OC(C)=O (stereo unspecified) on COLO 205: > 100 µM (inactive)

Form field GI50 for item CC(C)(C)NCCC(O)c1cc(C(F)(F)F)nc2c(C(F)(F)F)cccc12 (stereo unspecified) on COLO 205: 10.7 µM (inactive)

Form field GI50 for item Nc1ccc2ccc(N3CCNCC3)nc2n1 on COLO 205: 49.1 µM (inactive)

Form field GI50 for item COc1ccccc1N1C(=O)/C(=C\c2cc(OC)c(OC)c(OC)c2)SC1c1ccccc1 (stereo unspecified) on COLO 205: 24.1 µM (inactive)

Form field GI50 for item CC(=O)Oc1ccc(/C=C/C(=O)O[C@H]2CCCC[C@@H]2OC(=O)/C=C/c2ccc(OC(C)=O)c(OC(C)=O)c2)cc1OC(C)=O on COLO 205: 16.7 µM (inactive)

Form field GI50 for item COc1ccc(-c2cc(=O)c3c(O)c(OC)c(O)cc3o2)cc1O on COLO 205: 20.6 µM (inactive)

Form field GI50 for item COc1cc(C2C(Cl)C(=O)N2c2ccc(Br)cc2)cc(I)c1O (stereo unspecified) on COLO 205: > 100 µM (inactive)

Form field GI50 for item COc1ccc(-c2coc3cc(O)ccc3c2=O)cc1 on COLO 205: > 100 µM (inactive)

Form field GI50 for item COc1c(-c2ccccc2)oc2c(CP(=O)(OC)OC)cccc2c1=O on COLO 205: > 100 µM (inactive)

Form field GI50 for item CC(=N\c1ccncc1)/C(C)=N/c1ccncc1 on COLO 205: 17 µM (inactive)

Form field GI50 for item C=C/C=C(\NC(=O)C(Cl)(Cl)Cl)[Si](C)(C)C on COLO 205: > 100 µM (inactive)

Form field GI50 for item Cc1cc(C)c(-n2c(-c3ccccc3)cs/c2=N\N=C2C=C(C(C)(C)C)C(=O)C(C(C)(C)C)=C2)c(C)c1 on COLO 205: > 100 µM (inactive)

Form field GI50 for item S=C1CCSc2c(ccc3ccccc23)N1 on COLO 205: > 100 µM (inactive)

Form field GI50 for item CCOC(=O)C1=C(N2CCCC2)NC(=O)CC1=O on COLO 205: > 100 µM (inactive)
